# tested-on: human KOR (Homo sapiens, UniProt P41145)
# Construct: expressed in transfected cells; host or cells: CHO cells (University of Ferrara), co-expressing Gαqi5
# Sequence (P41145 whole entry): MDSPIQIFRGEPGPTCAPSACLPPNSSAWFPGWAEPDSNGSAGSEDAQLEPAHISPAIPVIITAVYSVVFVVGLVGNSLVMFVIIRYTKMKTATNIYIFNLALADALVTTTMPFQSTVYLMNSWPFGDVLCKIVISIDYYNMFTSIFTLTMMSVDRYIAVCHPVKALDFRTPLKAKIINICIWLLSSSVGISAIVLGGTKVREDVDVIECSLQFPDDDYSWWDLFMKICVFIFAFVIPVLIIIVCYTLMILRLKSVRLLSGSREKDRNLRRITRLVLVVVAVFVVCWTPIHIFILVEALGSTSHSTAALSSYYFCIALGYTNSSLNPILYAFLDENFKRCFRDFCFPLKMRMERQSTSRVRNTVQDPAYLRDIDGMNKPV
# assay-name: Calcium mobilization functional assay, agonist mode
# Type: cell-based
# condition-label: CHO cells co-expressing human KOR and Gαqi5; Fluo-4 AM calcium signal; n = 5; read-out: KOR pEC50 (CL95%) (converted)
Where a SMILES comes first, the peptide text is derived from it. Bridges are numbered along the chain shown (N, C = ends). [ ]: non-standard residue; d: D form. Nle = CCCC[C@H](N)C(=O)O
quantity-measured: EC50 (nM)
Give bare numbers, in nM.

INSERT INTO assay_data (compound, tested_on, reported_measurement) VALUES
  ('CCCC[C@H](NC(=O)[C@H](CC(C)C)NC(=O)[C@@H](Cc1c[nH]c2ccccc12)NC(=O)[C@H](Cc1ccccc1)NC(=O)[C@@H](Cc1c[nH]c2ccccc12)NC(=O)[C@H](CC(N)=O)NC(=O)[C@@H]1CC(=O)NCCCC[C@@H](NC(=O)[C@@H](N)Cc2ccc(O)cc2)C(=O)N[C@@H](Cc2ccccc2)C(=O)N[C@@H](Cc2ccccc2)C(=O)N1)C(N)=O [compound 2] (H-Y[dK]FFDN[dW]F[dW]L[Nle]-NH2; lactam 2-5)', 'human KOR (Homo sapiens, UniProt P41145)', 9.77);

// for each compound in input: emit EC50
1. CSCC[C@H](NC(=O)[C@H](CC(C)C)NC(=O)CNC(=O)[C@@H]1CC(=O)NCCCC[C@@H](NC(=O)[C@@H](N)Cc2ccc(O)cc2)C(=O)N[C@@H](Cc2ccccc2)C(=O)N[C@@H](Cc2ccccc2)C(=O)N1)C(N)=O [compound 7, Tyr-[D-Lys-Phe-Phe-Asp]-Gly-Leu-Met-NH2] (H-Y[dK]FFDGLM-NH2; lactam 2-5)
2. CCCC[C@H](NC(=O)[C@H](CC(C)C)NC(=O)[C@@H](Cc1c[nH]c2ccccc12)NC(=O)[C@H](Cc1ccccc1)NC(=O)[C@@H](Cc1c[nH]c2ccccc12)NC(=O)[C@@H]1CC(=O)NCCCC[C@@H](NC(=O)[C@@H](N)Cc2ccc(O)cc2)C(=O)N[C@@H](Cc2ccccc2)C(=O)N[C@@H](Cc2ccccc2)C(=O)N1)C(N)=O [compound 3] (H-Y[dK]FFD[dW]F[dW]L[Nle]-NH2; lactam 2-5)

Solution:
1. 1.58
2. 3.55

====

# tested-on: human MOR (Homo sapiens, UniProt P35372)
# Construct: expressed in transfected cells; host or cells: CHO cells (University of Ferrara), co-expressing Gαqi5
# Sequence (P35372 whole entry): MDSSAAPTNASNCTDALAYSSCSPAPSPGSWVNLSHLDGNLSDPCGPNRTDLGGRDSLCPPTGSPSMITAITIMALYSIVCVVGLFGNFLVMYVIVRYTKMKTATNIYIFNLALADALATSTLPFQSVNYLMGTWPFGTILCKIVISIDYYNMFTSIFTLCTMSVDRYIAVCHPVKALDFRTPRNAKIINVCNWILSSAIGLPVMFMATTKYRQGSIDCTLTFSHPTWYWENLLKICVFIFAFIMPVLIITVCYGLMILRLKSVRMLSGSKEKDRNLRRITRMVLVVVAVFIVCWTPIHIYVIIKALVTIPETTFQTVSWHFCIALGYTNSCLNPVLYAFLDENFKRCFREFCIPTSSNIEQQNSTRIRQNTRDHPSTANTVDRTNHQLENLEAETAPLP
# assay-name: Calcium mobilization functional assay, agonist mode
# Type: cell-based
# condition-label: CHO cells co-expressing human MOR and Gαqi5; Fluo-4 AM calcium signal; n = 5; read-out: MOR pEC50 (CL95%) (converted)
Where a SMILES comes first, the peptide text is derived from it. Bridges are numbered along the chain shown (N, C = ends). [ ]: non-standard residue; d: D form. Nle = CCCC[C@H](N)C(=O)O
quantity-measured: log10(EC50) (log10 of the value in nM)
log10 EC50, nM

INSERT INTO assay_data (molecule, reported_measurement) VALUES
  ('CSCC[C@H](NC(=O)[C@H](CC(C)C)NC(=O)CNC(=O)[C@H](Cc1ccccc1)NC(=O)[C@@H]1CC(=O)NCCCC[C@@H](NC(=O)[C@@H](N)Cc2ccc(O)cc2)C(=O)N[C@@H](Cc2ccccc2)C(=O)N[C@@H](Cc2ccccc2)C(=O)N1)C(N)=O [compound 6] (H-Y[dK]FFDFGLM-NH2; lactam 2-5)', 0.96);

# return log10(EC50) for each item in the list
1. CCCC[C@H](NC(=O)[C@H](CC(C)C)NC(=O)[C@@H](Cc1c[nH]c2ccccc12)NC(=O)[C@H](Cc1ccccc1)NC(=O)[C@@H](Cc1c[nH]c2ccccc12)NC(=O)[C@@H]1CC(=O)NCCCC[C@@H](NC(=O)[C@@H](N)Cc2ccc(O)cc2)C(=O)N[C@@H](Cc2ccccc2)C(=O)N[C@@H](Cc2ccccc2)C(=O)N1)C(N)=O [compound 3] (H-Y[dK]FFD[dW]F[dW]L[Nle]-NH2; lactam 2-5)
2. NC(=O)[C@@H]1CC(=O)NCCCC[C@@H](NC(=O)[C@@H](N)Cc2ccc(O)cc2)C(=O)N[C@@H](Cc2ccccc2)C(=O)N[C@@H](Cc2ccccc2)C(=O)N1 [compound 1, Tyr-c[D-Lys-Phe-Phe-Asp]NH2] (H-Y[dK]FFD-NH2; lactam 2-5)
3. CSCC[C@H](NC(=O)[C@H](CC(C)C)NC(=O)CNC(=O)[C@@H]1CC(=O)NCCCC[C@@H](NC(=O)[C@@H](N)Cc2ccc(O)cc2)C(=O)N[C@@H](Cc2ccccc2)C(=O)N[C@@H](Cc2ccccc2)C(=O)N1)C(N)=O [compound 7, Tyr-[D-Lys-Phe-Phe-Asp]-Gly-Leu-Met-NH2] (H-Y[dK]FFDGLM-NH2; lactam 2-5)
4. CCCC[C@H](NC(=O)[C@H](CC(C)C)NC(=O)[C@@H](Cc1c[nH]c2ccccc12)NC(=O)[C@H](Cc1ccccc1)NC(=O)[C@@H](Cc1c[nH]c2ccccc12)NC(=O)[C@H](CC(N)=O)NC(=O)[C@@H]1CC(=O)NCCCC[C@@H](NC(=O)[C@@H](N)Cc2ccc(O)cc2)C(=O)N[C@@H](Cc2ccccc2)C(=O)N[C@@H](Cc2ccccc2)C(=O)N1)C(N)=O [compound 2] (H-Y[dK]FFDN[dW]F[dW]L[Nle]-NH2; lactam 2-5)

Solution:
1: 2.24; 2: 0.02; 3: 0.31; 4: 1.50
